Entry source: patent US20140274782A1

- assayed-system: T1, G9a and GLP (Homo sapiens, UniProt Q96KQ7+Q9H9B1)
- T1 sequence (Q96KQ7 2-1210 limits assumed): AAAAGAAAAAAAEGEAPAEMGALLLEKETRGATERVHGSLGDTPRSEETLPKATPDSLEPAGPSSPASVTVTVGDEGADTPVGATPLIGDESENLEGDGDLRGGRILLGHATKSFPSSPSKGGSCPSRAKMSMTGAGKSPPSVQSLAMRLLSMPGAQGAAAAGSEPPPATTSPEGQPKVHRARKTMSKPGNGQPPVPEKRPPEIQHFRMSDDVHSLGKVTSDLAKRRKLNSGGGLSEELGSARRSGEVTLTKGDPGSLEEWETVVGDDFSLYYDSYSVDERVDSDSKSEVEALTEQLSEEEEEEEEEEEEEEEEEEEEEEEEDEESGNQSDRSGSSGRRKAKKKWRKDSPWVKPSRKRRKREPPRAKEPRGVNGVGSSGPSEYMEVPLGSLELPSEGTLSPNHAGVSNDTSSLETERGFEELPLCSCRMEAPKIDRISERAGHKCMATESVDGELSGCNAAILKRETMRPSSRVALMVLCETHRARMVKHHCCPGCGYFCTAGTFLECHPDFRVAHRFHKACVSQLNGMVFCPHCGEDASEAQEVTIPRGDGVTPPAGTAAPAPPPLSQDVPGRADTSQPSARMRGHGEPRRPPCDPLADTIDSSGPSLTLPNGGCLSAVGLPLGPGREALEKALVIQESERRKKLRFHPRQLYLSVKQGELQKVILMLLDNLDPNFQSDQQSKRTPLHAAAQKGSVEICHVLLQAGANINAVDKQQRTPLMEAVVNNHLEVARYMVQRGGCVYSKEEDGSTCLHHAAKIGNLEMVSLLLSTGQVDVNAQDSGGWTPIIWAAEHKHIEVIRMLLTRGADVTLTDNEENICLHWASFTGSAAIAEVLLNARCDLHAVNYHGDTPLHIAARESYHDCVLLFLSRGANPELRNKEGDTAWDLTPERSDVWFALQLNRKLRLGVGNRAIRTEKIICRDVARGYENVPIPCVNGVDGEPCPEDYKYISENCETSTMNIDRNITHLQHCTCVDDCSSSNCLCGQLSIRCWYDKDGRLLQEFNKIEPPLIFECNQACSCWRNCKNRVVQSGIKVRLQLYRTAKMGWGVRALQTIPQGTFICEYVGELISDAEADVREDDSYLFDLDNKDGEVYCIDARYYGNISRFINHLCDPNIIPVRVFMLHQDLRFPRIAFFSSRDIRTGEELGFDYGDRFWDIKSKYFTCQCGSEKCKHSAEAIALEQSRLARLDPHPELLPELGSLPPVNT
- T1 sequence (Q9H9B1 2-1298 limits assumed): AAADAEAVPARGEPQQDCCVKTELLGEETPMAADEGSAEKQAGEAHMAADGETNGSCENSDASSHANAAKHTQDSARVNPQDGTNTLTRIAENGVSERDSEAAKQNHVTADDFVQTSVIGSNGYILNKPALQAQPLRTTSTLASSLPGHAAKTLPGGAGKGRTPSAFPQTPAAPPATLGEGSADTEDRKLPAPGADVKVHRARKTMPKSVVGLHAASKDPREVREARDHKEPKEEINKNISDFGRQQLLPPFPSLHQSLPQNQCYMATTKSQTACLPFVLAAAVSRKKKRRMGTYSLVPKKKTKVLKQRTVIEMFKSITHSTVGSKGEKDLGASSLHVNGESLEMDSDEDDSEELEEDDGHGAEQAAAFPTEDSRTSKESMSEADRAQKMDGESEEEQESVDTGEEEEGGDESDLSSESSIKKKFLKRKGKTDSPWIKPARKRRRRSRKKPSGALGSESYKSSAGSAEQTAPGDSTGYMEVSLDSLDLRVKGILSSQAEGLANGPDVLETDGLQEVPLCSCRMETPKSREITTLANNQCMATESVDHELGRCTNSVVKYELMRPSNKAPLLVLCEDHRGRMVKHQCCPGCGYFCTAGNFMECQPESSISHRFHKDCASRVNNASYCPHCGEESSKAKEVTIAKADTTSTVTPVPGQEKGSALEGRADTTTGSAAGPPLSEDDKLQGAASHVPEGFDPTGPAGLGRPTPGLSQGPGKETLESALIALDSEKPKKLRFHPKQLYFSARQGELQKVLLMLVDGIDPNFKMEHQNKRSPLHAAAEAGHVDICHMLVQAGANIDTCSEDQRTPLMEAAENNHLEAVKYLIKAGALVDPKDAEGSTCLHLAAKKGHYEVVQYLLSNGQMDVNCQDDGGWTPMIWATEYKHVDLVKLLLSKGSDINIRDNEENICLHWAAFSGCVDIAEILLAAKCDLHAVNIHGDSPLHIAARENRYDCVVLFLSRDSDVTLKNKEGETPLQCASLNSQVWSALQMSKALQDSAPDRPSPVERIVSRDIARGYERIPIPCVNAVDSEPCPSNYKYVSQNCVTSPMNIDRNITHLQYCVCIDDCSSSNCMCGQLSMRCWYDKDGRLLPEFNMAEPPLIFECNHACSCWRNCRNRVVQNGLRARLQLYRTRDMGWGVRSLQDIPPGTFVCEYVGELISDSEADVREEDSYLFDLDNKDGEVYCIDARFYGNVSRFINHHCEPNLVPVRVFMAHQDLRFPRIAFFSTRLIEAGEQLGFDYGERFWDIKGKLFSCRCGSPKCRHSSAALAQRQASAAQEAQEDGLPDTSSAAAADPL
- assay-details: Triple SILAC pull-down after UNC0638 treatment of 293T cells, DMSO/UNC0638 ratio of protein captured by 3×MBT;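 note: mass spectrometry (Q-Exactive) SILAC quantitation, DMSO/UNC0638 ratio computed after subtracting 3×MBTD355N mutant pull-down background, only proteins with at least twofold 3×MBT over mutant signal considered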
- Assay type: cell-based
- Set-up: cells were treated for 24 hours with UNC0638 at 2.5 μM or DMSO vehicle control; endogenous in cells; host or cells: HEK 293T
- experimental-setup: average of UNC Light and UNC Heavy experiments
# if value of Relative to UNC0638 Average reaches 0.2 log base 2, tag y; if it stays below, tag n

| molecule | answer-label |
| --- | --- |
| RBM3 (protein, UniProt P98179 1-157, looked up) RNA-binding protein 3: MSSEEGKLFVGGLNFNTDEQALEDHFSSFGPISEVVVVKDRETQRSRGFGFITFTNPEHASVAMRAMNGESLDGRQIRVDHAGKSARGTRGGGFGAHGRGRSYSRGGGDQGYGSGRYYDSRPGGYGYGYGRSRDYNGRNQGGYDRYSGGNYRDNYDN | y |
| HNRNPA2B1 (protein, UniProt P22626 1-353, looked up) Heterogeneous nuclear …: MEKTLETVPLERKKREKEQFRKLFIGGLSFETTEESLRNYYEQWGKLTDCVVMRDPASKRSRGFGFVTFSSMAEVDAAMAARPHSIDGRVVEPKRAVAREESGKPGAHVTVKKLFVGGIKEDTEEHHLRDYFEEYGKIDTIEIITDRQSGKKRGFGFVTFDDHDPVDKIVLQKYHTINGHNAEVRKALSRQEMQEVQSSRSGRGGNFGFGDSRGGGGNFGPGPGSNFRGGSDGYGSGRGFGDGYNGYGGGPGGGNFGGSPGYGGGRGGYGGGGPGYGNQGGGYGGGYDNYGGGNYGSGNYNDFGNYNQQPSNYGPMKSGNFGGSRNMGGPYGGGNYGPGGSGGSGGYGGRSRY | n |
| CNBP (protein, UniProt P62633 2-177, looked up) CCHC-type zinc finger nucleic …: SSNECFKCGRSGHWARECPTGGGRGRGMRSRGRGGFTSDRGFQFVSSSLPDICYRCGESGHLAKDCDLQEDACYNCGRGGHIAKDCKEPKREREQCCYNCGKPGHLARDCDHADEQKCYSCGEFGHIQKDCTKVKCYRCGETGHVAINCSKTSEVNCYRCGESGHLARECTIEATA | y |
| RBMX (protein, UniProt P38159 1-391, looked up) RNA-binding motif protein, X …: MVEADRPGKLFIGGLNTETNEKALEAVFGKYGRIVEVLLMKDRETNKSRGFAFVTFESPADAKDAARDMNGKSLDGKAIKVEQATKPSFESGRRGPPPPPRSRGPPRGLRGGRGGSGGTRGPPSRGGHMDDGGYSMNFNMSSSRGPLPVKRGPPPRSGGPPPKRSAPSGPVRSSSGMGGRAPVSRGRDSYGGPPRREPLPSRRDVYLSPRDDGYSTKDSYSSRDYPSSRDTRDYAPPPRDYTYRDYGHSSSRDDYPSRGYSDRDGYGRDRDYSDHPSGGSYRDSYESYGNSRSAPPTRGPPPSYGGSSRYDDYSSSRDGYGGSRDSYSSSRSDLYSSGRDRVGRQERGLPPSMERGYPPPRDSYSSSSRGAPRGGGRGGSRSDRGGGRSRY | n |
| ILKAP (protein, UniProt Q9H0C8 1-392, looked up) Integrin-linked …: MDLFGDLPEPERSPRPAAGKEAQKGPLLFDDLPPASSTDSGSGGPLLFDDLPPASSGDSGSLATSISQMVKTEGKGAKRKTSEEEKNGSEELVEKKVCKASSVIFGLKGYVAERKGEREEMQDAHVILNDITEECRPPSSLITRVSYFAVFDGHGGIRASKFAAQNLHQNLIRKFPKGDVISVEKTVKRCLLDTFKHTDEEFLKQASSQKPAWKDGSTATCVLAVDNILYIANLGDSRAILCRYNEESQKHAALSLSKEHNPTQYEERMRIQKAGGNVRDGRVLGVLEVSRSIGDGQYKRCGVTSVPDIRRCQLTPNDRFILLACDGLFKVFTPEEAVNFILSCLEDEKIQTREGKSAADARYEAACNRLANKAVQRGSADNVTVMVVRIGH | n |
| PABPN1 (protein, UniProt Q86U42 2-306, looked up) Polyadenylate-binding protein …: AAAAAAAAAAGAAGGRGSGPGRRRHLVPGAGGEAGEGAPGGAGDYGNGLESEELEPEELLLEPEPEPEPEEEPPRPRAPPGAPGPGPGSGAPGSQEEEEEPGLVEGDPGDGAIEDPELEAIKARVREMEEEAEKLKELQNEVEKQMNMSPPPGNAGPVIMSIEEKMEADARSIYVGNVDYGATAEELEAHFHGCGSVNRVTILCDKFSGHPKGFAYIEFSDKESVRTSLALDESLFRGRQIKVIPKRTNRPGISTTDRGFPRARYRARTTNYNSSRSRFYSGFNSRPRGRVYRGRARATSWYSPY | n |
| LSM12 (protein, UniProt Q3MHD2 2-195, looked up) Protein LSM12: AAPPGEYFSVGSQVSCRTCQEQRLQGEVVAFDYQSKMLALKCPSSSGKPNHADILLINLQYVSEVEIINDRTETPPPLASLNVSKLASKARTEKEEKLSQAYAISAGVSLEGQQLFQTIHKTIKDCKWQEKNIVVMEEVVITPPYQVENCKGKEGSALSHVRKIVEKHFRDVESQKILQRSQAQQPQKEAALSS | n |
| ALKBH5 (protein, UniProt Q6P6C2 2-394, looked up) RNA demethylase ALKBH5: AAASGYTDLREKLKSMTSRDNYKAGSREAAAAAAAAVAAAAAAAAAAEPYPVSGAKRKYQEDSDPERSDYEEQQLQKEEEARKVKSGIRQMRLFSQDECAKIEARIDEVVSRAEKGLYNEHTVDRAPLRNKYFFGEGYTYGAQLQKRGPGQERLYPPGDVDEIPEWVHQLVIQKLVEHRVIPEGFVNSAVINDYQPGGCIVSHVDPIHIFERPIVSVSFFSDSALCFGCKFQFKPIRVSEPVLSLPVRRGSVTVLSGYAADEITHCIRPQDIKERRAVIILRKTRLDAPRLETKSLSSSVLPPSYASDRLSGNNRDPALKPKRSHRKADPDAAHRPRILEMDKEENRRSVLLPTHRRRGSFSSENYWRKSYESSEDCSEAAGSPARKVKMRRH | n |
